Origin of measurements: ChEMBL document CHEMBL3414546

TARGET DESC: Coagulation factor X (Homo sapiens)
Sequence (P00742 41-179 limits assumed): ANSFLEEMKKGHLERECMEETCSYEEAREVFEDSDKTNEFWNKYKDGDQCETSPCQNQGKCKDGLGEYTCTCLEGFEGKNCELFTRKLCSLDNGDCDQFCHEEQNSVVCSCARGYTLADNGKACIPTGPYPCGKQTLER
Sequence (P00742 235-488 limits assumed): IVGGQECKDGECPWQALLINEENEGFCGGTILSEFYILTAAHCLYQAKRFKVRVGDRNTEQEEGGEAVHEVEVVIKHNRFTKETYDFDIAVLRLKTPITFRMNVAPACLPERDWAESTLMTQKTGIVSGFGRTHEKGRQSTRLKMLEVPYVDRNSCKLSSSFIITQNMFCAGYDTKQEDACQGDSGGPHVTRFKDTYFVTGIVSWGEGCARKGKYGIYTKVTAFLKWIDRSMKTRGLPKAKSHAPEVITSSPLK
ASSAY PROTOCOL: Inhibition of human F10a using S-2765 as substrate at 0.1 uM after 45 mins by spectra max analysis relative to control
METRIC NAME: inhibition (%)

O=C(NC[C@H]1CN(c2ccc(-n3cccc3CN3CCCC3)cc2)C(=O)O1)c1ccc(Cl)s1 | 89
O=C(NC[C@H]1CN(c2ccc(-c3nc(CN4CCCCC4)cs3)cc2)C(=O)O1)c1ccc(Cl)s1 | 72
O=C(NC[C@H]1CN(c2ccc(N3CCOCC3=O)cc2)C(=O)O1)c1ccc(Cl)s1 [RIVAROXABAN] | 100
CCN(CC)Cc1cccn1-c1ccc(N2C[C@H](CNC(=O)c3ccc(Cl)s3)OC2=O)cc1 | 100

----------
TARGET DESC: Coagulation factor X (Homo sapiens)
ASSAY PROTOCOL: Inhibition of F10a in human plasma assessed as doubling of prothombin time
pIC50: −log10 of the molar value.
METRIC NAME: pIC50

The following compounds have reported results that may help.
O=C(NC[C@H]1CN(c2cc(F)c(-n3cccc3CN3CCCC3)c(F)c2)C(=O)O1)c1ccc(Cl)s1 | 5.55
CC1CCN(Cc2csc(-c3ccc(N4C[C@H](CNC(=O)c5ccc(Cl)s5)OC4=O)cc3)n2)CC1 | 5.52

(a) CC1CCN(Cc2cccn2-c2ccc(N3C[C@H](CNC(=O)c4ccc(Cl)s4)OC3=O)cc2)CC1
(b) CCN(CC)Cc1cc2ccccc2n1-c1ccc(N2C[C@H](CNC(=O)c3ccc(Cl)s3)OC2=O)cc1
-- ask Pick the one with the larger pIC50: a vs b Respond using the label that marks the chosen record.
-- reply a
(a: 5.49, b: 5.27)

(P) O=C(NC[C@H]1CN(c2ccc(-c3nc(CN4CCOCC4)cs3)cc2)C(=O)O1)c1ccc(Cl)s1
(Q) CN(C)Cc1cccn1-c1ccc(N2C[C@H](CNC(=O)c3ccc(Cl)s3)OC2=O)cc1
(R) CN(C)Cc1cccn1-c1cc(F)c(N2C[C@H](CNC(=O)c3ccc(Cl)s3)OC2=O)c(F)c1
-- ask // smallest pIC50 at index 0, largest at the end Please, when replying, give the labels in the order that was requested.
-- reply P, R, Q
(P: 5.44, R: 5.74, Q: 6.21)

----------
TARGET DESC: Coagulation factor X (Homo sapiens)
ASSAY PROTOCOL: Inhibition of F10a in human plasma assessed as doubling of prothombin time
pIC50: −log10 of the molar value.
METRIC NAME: pIC50

For orientation, consider the following solved cases.
CC1CCN(Cc2cc3ccccc3n2-c2ccc(N3C[C@H](CNC(=O)c4ccc(Cl)s4)OC3=O)cc2)CC1 | 4.98
CN(C)Cc1cc2ccccc2n1-c1ccc(N2C[C@H](CNC(=O)c3ccc(Cl)s3)OC2=O)cc1 | 5.24
CNCc1csc(-c2ccc(N3C[C@H](CNC(=O)c4ccc(Cl)s4)OC3=O)cc2)n1 | 5.78
O=C(NC[C@H]1CN(c2ccc(-n3cccc3CN3CCOCC3)cc2)C(=O)O1)c1ccc(Cl)s1 | 5.53
O=C(NC[C@H]1CN(c2ccc(-n3cccc3CN3CCCCC3)cc2)C(=O)O1)c1ccc(Cl)s1 | 5.58
CCNCc1csc(-c2ccc(N3C[C@H](CNC(=O)c4ccc(Cl)s4)OC3=O)cc2)n1 | 6.19

(P) O=C(NC[C@H]1CN(c2ccc(-n3cccc3CN3CCCC3)cc2)C(=O)O1)c1ccc(Cl)s1
(Q) CN1CCN(Cc2cccn2-c2ccc(N3C[C@H](CNC(=O)c4ccc(Cl)s4)OC3=O)cc2)CC1
-- ask Dear colleague, could you let me know whether P or Q has the lower recorded pIC50? Thanks. Answer format: the label of the selected item.
-- reply Q
(Q: 5.42, P: 5.85)

(1) O=C(NC[C@H]1CN(c2ccc(-n3c(CN4CCCCC4)cc4ccccc43)cc2)C(=O)O1)c1ccc(Cl)s1
(2) O=C(NC[C@H]1CN(c2ccc(-c3nc(CN4CCCC4)cs3)cc2)C(=O)O1)c1ccc(Cl)s1
(3) CN(C)Cc1cccn1-c1ccc(N2C[C@H](CNC(=O)c3ccc(Cl)s3)OC2=O)cc1F
(4) CCN(CC)Cc1cccn1-c1ccc(N2C[C@H](CNC(=O)c3ccc(Cl)s3)OC2=O)cc1
-- ask Put the items in order so that reported pIC50 rises from first to last. Give the labels in the order specified.
-- reply 1, 2, 3, 4

(a) O=C(NC[C@H]1CN(c2ccc(-c3nc(CN4CCCCC4)cs3)cc2)C(=O)O1)c1ccc(Cl)s1
(b) CN1CCN(Cc2cc3ccccc3n2-c2ccc(N3C[C@H](CNC(=O)c4ccc(Cl)s4)OC3=O)cc2)CC1
-- ask // pick min by pIC50: a , b Please indicate the selected item by its label.
-- reply b
(b: 4.95, a: 5.57)
